Ref: ChEMBL document CHEMBL2034842

- MEASUREMENT_PROTOCOL: Antiproliferative activity against human Hep2 cells assessed as cell survival fraction at 5 ug/mL after 24 hrs by MTT assay
- Assay type: cell-based
- CONDITION_DETAILS: HEp-2 cells, read-out: Survival
PARAMETER_MEASURED: viability at 24 h, 5 ug/mL (%)
One number for each entry, in %.

Identify the reported viability at 24 h, 5 ug/mL for the following entry. "CCC(CC)=NNc1nc(-c2ccc(I)cc2)cs1" 90

Could I get viability at 24 h, 5 ug/mL for every one of these entries?
1. C/C(=N\Nc1nc(-c2ccc(I)cc2)cs1)c1ccncc1
2. Ic1ccc(-c2csc(N/N=C/c3cccc4ccccc34)n2)cc1
3. CC1CC/C(=N\Nc2nc(-c3ccc(I)cc3)cs2)C1 (stereo not drawn)
4. CCCCC/C(C)=N/Nc1nc(-c2ccc(I)cc2)cs1
5. Clc1ccccc1C(c1ccccc1)(c1ccccc1)n1ccnc1
6. CC1CCC/C1=N\Nc1nc(-c2ccc(I)cc2)cs1 (stereo not drawn)
7. CCC/C(C)=N/Nc1nc(-c2ccc(I)cc2)cs1

1. 58
2. 78
3. 92
4. 90
5. 82
6. 60
7. 72
